assayed system: A1 receptors (Rattus norvegicus, UniProt P25099)
experimental details: [3H]-CHA binding, rat cortical membranes (A1), selectivity experiment of Table 4
Set-up: Rat Brain Membranes; from tissue; host or cells: rat brain (membranes)
assay setup: Table 4; [3H]-CHA, rat cortical membranes per text
readout kind: Ki (nM)

* Cn1cnc2c(N[C@H]3C[C@H]4CC[C@@H]3C4)ncnc21 (relative stereo) [compound 0861, N^6-(endo-2-Norbornyl)-9-Methyladenine] | 41

###

pKi for assorted molecules
assayed system: rat cortical A1 receptors (Rattus norvegicus, UniProt P25099)
Construct: rat cortical membranes were the receptor source; from tissue; host or cells: rat cerebral cortex (male Sprague Dawley) membranes
Sequence (P25099 1-326): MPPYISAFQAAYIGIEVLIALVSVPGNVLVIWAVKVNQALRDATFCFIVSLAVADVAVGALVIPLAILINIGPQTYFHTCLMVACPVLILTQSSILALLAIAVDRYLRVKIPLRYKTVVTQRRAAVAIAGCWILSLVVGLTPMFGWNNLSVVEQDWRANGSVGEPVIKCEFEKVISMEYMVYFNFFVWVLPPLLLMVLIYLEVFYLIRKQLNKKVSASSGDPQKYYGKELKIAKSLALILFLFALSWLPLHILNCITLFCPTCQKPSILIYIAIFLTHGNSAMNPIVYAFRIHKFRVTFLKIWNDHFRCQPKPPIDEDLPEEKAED
experimental details: displacement of [3H]-CHA from rat cortical A1 receptors
Type: binding
assay setup: [3H]-CHA; rat cortical A1 receptors; read-out: Rat Cortical Binding Constant Ki
Procedure: Varying concentrations of test compounds were incubated with the appropriate radioligand and membrane source for 1 hr at room temperature. Assays were terminated by filtration over Whatman GF/B filters that had been pre-soaked with 0.1% polyethyleneimine using a 24 port Brandell cell havester. The filters were washed three times with 3 ml of ice cold buffer and transfered to plastic scintillation vials to which 4 ml of Beckman Ready protein scintillation cocktail was added. […]
pKi: −log10 of the molar value.
readout kind: pKi

• Cn1c(N)nc2c(N[C@H]3C[C@H]4CC[C@@H]3C4)ncnc21 (relative stereo) [compound 1005, N^6-(endo-2-norbornyl)-8-amino-9-MA] = 6.06
• OCCOCn1cnc2c(N[C@H]3C[C@H]4CC[C@@H]3C4)ncnc21 (relative stereo) = 6.31
• Cn1c(Cl)nc2c(N[C@H]3C[C@H]4CC[C@@H]3C4)ncnc21 (relative stereo) [compound 1061, N^6-(endo-2-norbornyl)-8-chloro-9-MA] = 7.82
• Cn1c(C2CCCC2)nc2c(N[C@H]3C[C@H]4CC[C@@H]3C4)ncnc21 (relative stereo) = 6.62
• Cn1cnc2c(N[C@@H]3C[C@H]4CC[C@@H]3C4)ncnc21 (relative stereo) [compound 0978, N^6-(exo-2-norbornyl)-9-MA] = 6.37
• Cn1cnc2c(N[C@H]3C[C@H]4CC[C@@H]3C4)ncnc21 (relative stereo) [compound 0861, N^6-(endo-2-Norbornyl)-9-Methyladenine] = 6.94
• Cn1c(C2CCCC2)nc2c(NC3CCCC3)ncnc21 = 6.85
• Cn1cnc2c(NC3CCCC3)ncnc21 = 6.43
• Cn1c(Br)nc2c(N[C@H]3C[C@H]4CC[C@@H]3C4)ncnc21 (relative stereo) [compound 1003, N^6-(endo-2-norbornyl)-8-bromo-9-MA] = 7.89

###

assayed system: A1 receptors (Rattus norvegicus, UniProt P25099)
experimental details: prevention of R-PIA-induced inhibition of adenylate cyclase in rat fat cell membranes (C)
Assay type: biochemical
Parameters: from tissue
readout kind: Kb (µM)

* C[C@H](Cc1ccccc1)Nc1ncnc2c1ncn2C [N^6 R-1-Phenyl-2-propyl-9-MA, N^6 -R-1-Phenyl-2-propyl-9-MA] | 7.2
* CNc1ncnc2c1ncn2C [N^6 -Methyl-9-MA] | 220
* Cn1cnc2c(N)ncnc21 [9-Methyladenine (9-MA), 9-Methyladenine, reference compound] | 112
